Target: Homeodomain-interacting protein kinase 2 (Homo sapiens) (UniProt Q9H2X6)
Sequence (Q9H2X6 whole entry, looked up): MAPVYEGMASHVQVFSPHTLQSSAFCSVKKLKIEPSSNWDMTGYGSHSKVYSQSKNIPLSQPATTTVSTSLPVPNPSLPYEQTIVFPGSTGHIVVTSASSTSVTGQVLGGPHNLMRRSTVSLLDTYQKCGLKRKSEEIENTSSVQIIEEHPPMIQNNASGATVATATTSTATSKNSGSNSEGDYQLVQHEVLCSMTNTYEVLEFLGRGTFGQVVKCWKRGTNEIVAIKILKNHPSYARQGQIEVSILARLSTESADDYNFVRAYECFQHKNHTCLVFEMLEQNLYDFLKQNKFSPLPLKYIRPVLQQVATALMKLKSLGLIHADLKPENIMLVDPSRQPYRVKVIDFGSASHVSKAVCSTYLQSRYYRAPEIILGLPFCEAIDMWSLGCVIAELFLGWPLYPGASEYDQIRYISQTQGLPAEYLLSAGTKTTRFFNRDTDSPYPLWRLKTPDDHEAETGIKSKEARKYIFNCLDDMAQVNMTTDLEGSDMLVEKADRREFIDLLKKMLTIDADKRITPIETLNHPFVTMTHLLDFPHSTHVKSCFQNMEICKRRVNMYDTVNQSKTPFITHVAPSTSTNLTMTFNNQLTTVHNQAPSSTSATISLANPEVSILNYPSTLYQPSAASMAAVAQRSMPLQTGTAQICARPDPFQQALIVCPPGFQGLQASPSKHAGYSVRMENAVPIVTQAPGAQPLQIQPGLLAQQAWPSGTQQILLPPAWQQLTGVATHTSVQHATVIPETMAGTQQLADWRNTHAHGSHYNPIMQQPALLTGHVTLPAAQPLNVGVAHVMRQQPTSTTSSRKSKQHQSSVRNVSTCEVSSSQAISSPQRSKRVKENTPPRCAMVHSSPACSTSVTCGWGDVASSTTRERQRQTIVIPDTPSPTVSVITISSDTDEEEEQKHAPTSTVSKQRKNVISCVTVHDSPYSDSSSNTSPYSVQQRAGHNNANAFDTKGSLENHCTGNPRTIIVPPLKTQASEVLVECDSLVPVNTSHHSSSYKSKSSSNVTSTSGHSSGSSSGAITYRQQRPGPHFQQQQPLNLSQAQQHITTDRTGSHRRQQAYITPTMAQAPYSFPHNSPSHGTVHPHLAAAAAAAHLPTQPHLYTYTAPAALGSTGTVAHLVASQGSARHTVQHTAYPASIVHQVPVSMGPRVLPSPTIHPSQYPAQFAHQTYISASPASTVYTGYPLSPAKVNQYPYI
Settings: at 10 µM
Measurement Label: residual activity (%)
API: value field is a number in %; no unit string.

Data request: Recall and state the measured residual activity for COc1cc2ncnc(N3CCN(C(=O)Nc4ccc(Oc5ccccc5)cc4)CC3)c2cc1OC .
Data returned: 77

Data request: Give recorded residual activity. Oc1c2ccccc2c2c3c(cccc13)N=N2
Data returned: 15

Data request: Note down residual activity recorded for CN(C)CCCn1cc(C2=C(c3c[nH]c4ccccc34)C(=O)NC2=O)c2ccccc21
Data returned: 21

Data request: Note down residual activity recorded for CO[C@@H]1[C@H](N(C)C(=O)c2ccccc2)C[C@H]2O[C@]1(C)n1c3ccccc3c3c4c(c5c6ccccc6n2c5c31)C(=O)NC4
Data returned: 35

Data request: Provide measured residual activity value, entry: Oc1ccc(Nc2nc(-c3ccc(Cl)cc3)cs2)cc1
Data returned: 89
